- Procedure summary: Solid thermostability test (accelerated test at 80° C. in tightly closed vials)
- Assay type: physicochemical
- Settings: after 4 weeks
Measured attribute: Residual Rate (thermostability of solid) (%)
The response must be a number in % with no trailing unit.

Check out these entries, answers already filled in.
Compound	Residual Rate (thermostability of solid) (%)
O=C1c2c(c3c4ccc(O)cc4n(C4OC(CO)C(O)C(O)C4O)c3c3[nH]c4cc(O)ccc4c23)C(=O)N1NCc1ccncc1CO (stereo not drawn) [Crystals of methanesulfonate of the compound of the formula ]	99.1
Cl.O=C1c2c(c3c4ccc(O)cc4n(C4OC(CO)C(O)C(O)C4O)c3c3[nH]c4cc(O)ccc4c23)C(=O)N1NCc1ccncc1 (stereo not drawn)	98.4
O=C1c2c(c3c4ccc(O)cc4n(C4OC(CO)C(O)C(O)C4O)c3c3[nH]c4cc(O)ccc4c23)C(=O)N1NCc1ccncc1 (stereo not drawn) [Crystals of free base of the compound of the formula (IV)]	99.7
O=C1c2c(c3c4ccc(O)cc4n(C4OC(CO)C(O)C(O)C4O)c3c3[nH]c4cc(O)ccc4c23)C(=O)N1NCc1ccncc1 (stereo not drawn) [Amorphous free base of the compound of the formula (IV)]	82.9
O=C1c2c(c3c4ccc(O)cc4n(C4OC(CO)C(O)C(O)C4O)c3c3[nH]c4cc(O)ccc4c23)C(=O)N1NCc1cccc(CO)n1 (stereo not drawn)	66.6

# ---- query compound ----
Please report the recorded Residual Rate (thermostability of solid) for O=C1c2c(c3c4ccc(O)cc4n(C4OC(CO)C(O)C(O)C4O)c3c3[nH]c4cc(O)ccc4c23)C(=O)N1NCc1ccncc1CO (stereo not drawn) [Amorphous free base of the compound of the formula (II)] .
87.8

* * *

- Procedure summary: Hygroscopicity test (moisture sorption analyzer)
- Format: physicochemical
- Settings: relative humidity changed from 30% to 75% (adsorption process of water)
- From the text: Comparing the hygroscopicity of amorphous free base of the compound represented by the above formula (II) with that of crystals of hydrochloride of the same compound, the weight of the amorphous free base increased by 7.6% under the moisturized condition (adsorption process of water), while the weight of the crystal increased as slightly as 1.5% in the case where the comparison was done changing the humidity from 30% to 75% which is the humidity for usual preservation. […]
Measured attribute: Weight change rate upon humidification (%)
The response must be a number in % with no trailing unit.

Please report the recorded Weight change rate upon humidification for Cl.O=C1c2c(c3c4ccc(O)cc4n(C4OC(CO)C(O)C(O)C4O)c3c3[nH]c4cc(O)ccc4c23)C(=O)N1NCc1ccncc1 (stereo not shown) .
0.6

Please report the recorded Weight change rate upon humidification for O=C1c2c(c3c4ccc(O)cc4n(C4OC(CO)C(O)C(O)C4O)c3c3[nH]c4cc(O)ccc4c23)C(=O)N1NCc1ccncc1 (stereo not shown) [Amorphous free base of the compound of the formula (IV)] .
2.8

Please report the recorded Weight change rate upon humidification for O=C1c2c(c3c4ccc(O)cc4n(C4OC(CO)C(O)C(O)C4O)c3c3[nH]c4cc(O)ccc4c23)C(=O)N1NCc1ccncc1CO (stereo not shown) [Amorphous free base of the compound of the formula (II)] .
7.6

Please report the recorded Weight change rate upon humidification for Cl.O=C1c2c(c3c4ccc(O)cc4n(C4OC(CO)C(O)C(O)C4O)c3c3[nH]c4cc(O)ccc4c23)C(=O)N1NCc1ccncc1CO (stereo not shown) .
1.5

* * *

- Procedure summary: Test on solubility in water
- Assay type: physicochemical
Measured attribute: solubility

Check out these entries, answers already filled in.
>>> df
                                   molecule  measured_attribute           assay_value
0  Cl.O=C1c2c(c3c4ccc(O)cc4n(C4OC(CO)C(O)C(O)C4O)c3c3[nH]c4cc(O)ccc4c23)C(=O)N1NCc1ccncc1CO (stereo not shown)          solubility  10000 to 50000 µg/mL
1  O=C1c2c(c3c4ccc(O)cc4n(C4OC(CO)C(O)C(O)C4O)c3c3[nH]c4cc(O)ccc4c23)C(=O)N1NCc1cccc(CO)n1 (stereo not shown)          solubility             ≤ 1 µg/mL
2  O=C1c2c(c3c4ccc(O)cc4n(C4OC(CO)C(O)C(O)C4O)c3c3[nH]c4cc(O)ccc4c23)C(=O)N1NCc1ccncc1 (stereo not shown)          solubility             ≤ 1 µg/mL

# ---- query molecule ----
Please report the recorded solubility for Cl.O=C1c2c(c3c4ccc(O)cc4n(C4OC(CO)C(O)C(O)C4O)c3c3[nH]c4cc(O)ccc4c23)C(=O)N1NCc1ccncc1 (stereo not shown) .
10000 to 50000 µg/mL

* * *

- Procedure summary: Solid light stability test (25° C., 2000 lux light source, tight-closed vials)
- Assay type: physicochemical
- Settings: after 4 weeks
// Residual Rate (light stability of solid) lookup, one value per entry
The response must be a number in % with no trailing unit.

Check out these entries, answers already filled in.
Compound	Measured attribute	Assay value
Cl.O=C1c2c(c3c4ccc(O)cc4n(C4OC(CO)C(O)C(O)C4O)c3c3[nH]c4cc(O)ccc4c23)C(=O)N1NCc1ccncc1CO (stereo not shown)	Residual Rate (light stability of solid)	94.3
Cl.O=C1c2c(c3c4ccc(O)cc4n(C4OC(CO)C(O)C(O)C4O)c3c3[nH]c4cc(O)ccc4c23)C(=O)N1NCc1ccncc1 (stereo not shown)	Residual Rate (light stability of solid)	95.8
O=C1c2c(c3c4ccc(O)cc4n(C4OC(CO)C(O)C(O)C4O)c3c3[nH]c4cc(O)ccc4c23)C(=O)N1NCc1ccncc1CO (stereo not shown) [Amorphous free base of the compound of the formula (II)]	Residual Rate (light stability of solid)	89.5

Please report the recorded Residual Rate (light stability of solid) for O=C1c2c(c3c4ccc(O)cc4n(C4OC(CO)C(O)C(O)C4O)c3c3[nH]c4cc(O)ccc4c23)C(=O)N1NCc1cccc(CO)n1 (stereo not shown) .
78.9

Please report the recorded Residual Rate (light stability of solid) for O=C1c2c(c3c4ccc(O)cc4n(C4OC(CO)C(O)C(O)C4O)c3c3[nH]c4cc(O)ccc4c23)C(=O)N1NCc1ccncc1 (stereo not shown) [Amorphous free base of the compound of the formula (IV)] .
84.6

Please report the recorded Residual Rate (light stability of solid) for O=C1c2c(c3c4ccc(O)cc4n(C4OC(CO)C(O)C(O)C4O)c3c3[nH]c4cc(O)ccc4c23)C(=O)N1NCc1ccncc1CO (stereo not shown) [Crystals of free base of the compound of the formula (II)] .
95.6

Please report the recorded Residual Rate (light stability of solid) for O=C1c2c(c3c4ccc(O)cc4n(C4OC(CO)C(O)C(O)C4O)c3c3[nH]c4cc(O)ccc4c23)C(=O)N1NCc1ccncc1 (stereo not shown) [Crystals of free base of the compound of the formula (IV)] .
99.5

Where do the numbers come from? From patent US20060229264A1.
